Recorded values, source patent US11952349B2.

Tested system: UniProt P06401
Sequence (P06401 679-913 limits assumed): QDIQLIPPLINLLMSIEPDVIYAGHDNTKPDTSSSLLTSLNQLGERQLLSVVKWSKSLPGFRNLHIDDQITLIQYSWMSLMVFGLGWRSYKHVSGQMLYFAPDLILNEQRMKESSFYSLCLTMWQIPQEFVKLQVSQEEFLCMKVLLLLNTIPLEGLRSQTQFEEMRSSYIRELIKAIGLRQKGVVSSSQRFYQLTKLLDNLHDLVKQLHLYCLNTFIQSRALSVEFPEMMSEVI
pIC50: −log10 of the molar value.
Measured attribute: pIC50

INSERT INTO results (smiles, tested_system, measured_attribute, observed) VALUES
  ('C[C@]12CC[C@H]3[C@@H](CCC4=CC(=O)CC[C@@]43C)[C@@H]1CC[C@@H]2C(=O)COCCCCCC(=O)N1CCN(C(=O)c2cc(Cc3n[nH]c(=O)c4ccccc34)ccc2F)CC1', 'UniProt P06401', 'pIC50', '< 5.00');

###

Tested system: full-length androgen receptor (Homo sapiens, UniProt P10275)
Construct: HEK293 cells stably expressing the full-length androgen receptor; expressed in transfected cells
Test name: AR antagonism assay (HEK293, testosterone 1 nM, Steady-glo)
Assay type: cell-based
Assay conditions: Table 7; testosterone 1 nM; read-out: AR antagonism
pIC50: −log10 of the molar value.
Documented pIC50 across a set of compounds
Measured attribute: pIC50

INSERT INTO measurements (compound, tested_system, observed) VALUES
  ('Cn1ncnc1C1c2n[nH]c(=O)c3cc(F)cc(c23)N[C@@H]1c1ccc(NC(=O)CCCCCO[C@@H]2CC[C@H]3[C@@H]4CC[C@H]5CCCC[C@]5(C)[C@H]4CC[C@]23C)cc1 (some centres unmarked) [Compound 1128]', 'full-length androgen receptor (Homo sapiens, UniProt P10275)', '5.00 to 6.00'),
  ('C[C@]12Cc3cn[nH]c3C[C@@H]1CC[C@@H]1[C@@H]2CC[C@]2(C)[C@@H](OCCCCCC(=O)N3CCN(C(=O)c4cc(Cc5n[nH]c(=O)c6ccccc56)ccc4F)CC3)CC[C@@H]12 [Compound 1394]', 'full-length androgen receptor (Homo sapiens, UniProt P10275)', '5.00 to 6.00');

###

Test system: 22Rv1 cells
Test name: Cell viability assay (CellTiterGlo, 6 days) 22Rv1
Type: cell-based
Assay conditions: Homo sapiens, 22Rv1, 144 h, read-out: 22RV1
Measured attribute: IC50

INSERT INTO assay_data (smiles, measured_attribute, observed) VALUES
  ('C[C@]12C[C@H](CCCCCC(=O)N3CCN(C(=O)c4cc(Cc5n[nH]c(=O)c6ccccc56)ccc4F)CC3)C3=C4CCC(=O)C=C4CC[C@H]3[C@@H]1CCC2=O', 'IC50', '100 to 1000 nM');

###

Measured IC50, listed per entry for reference.
Tested system: Human recombinant PARP1 (Homo sapiens)
Test name: RBC HotSpot PARP1 assay (radioisotope-based filter binding)
Format: biochemical
Assay conditions: Table 9; read-out: PARP1
Measured attribute: IC50

INSERT INTO results (molecule, tested_system, measured_attribute, observed) VALUES
  ('CC(=O)O[C@]1(C(C)=O)CC[C@H]2[C@@H]3CCC4=CC(=O)CCC4=C3[C@@H](c3ccc(N(C)CCCCCC(=O)NCCOCCOCC(=O)N4CCN(C(=O)c5cc(Cc6n[nH]c(=O)c7ccccc67)ccc5F)CC4)cc3)C[C@@]21C [Compound 1384]', 'Human recombinant PARP1 (Homo sapiens)', 'IC50', '1 to 10 nM'),
  ('CC#C[C@]1(O)CC[C@H]2[C@@H]3CCC4=CC(=O)CCC4=C3[C@@H](c3ccc(N(C)CCCCCC(=O)NCCOCCOCC(=O)N4CCN(C(=O)c5cc(Cc6n[nH]c(=O)c7ccccc67)ccc5F)CC4)cc3)C[C@@]21C [Compound 1429]', 'Human recombinant PARP1 (Homo sapiens)', 'IC50', '< 1 nM'),
  ('CC#C[C@]1(O)CC[C@H]2[C@@H]3CCC4=CC(=O)CCC4=C3[C@@H](c3ccc(N(C)CCCCCC(=O)N4CCN(C(=O)c5cc(Cc6n[nH]c(=O)c7ccccc67)ccc5F)CC4)cc3)C[C@@]21C [Compound 135]', 'Human recombinant PARP1 (Homo sapiens)', 'IC50', '1 to 10 nM'),
  ('C[C@]12C[C@H](CCCCCC(=O)N3CCN(C(=O)c4cc(Cc5n[nH]c(=O)c6ccccc56)ccc4F)CC3)C3=C4CCC(=O)C=C4CC[C@H]3[C@@H]1CCC2O (stereo partly shown) [Compound 138]', 'Human recombinant PARP1 (Homo sapiens)', 'IC50', '< 1 nM'),
  ('C[C@]12CC[C@H]3[C@@H](CCC4=CC(=O)CC[C@@]43C)[C@@H]1CC[C@@H]2C(=O)COCCCCCC(=O)NCCOCCOCC(=O)N1CCN(C(=O)c2cc(Cc3n[nH]c(=O)c4ccccc34)ccc2F)CC1 [Compound 1392]', 'Human recombinant PARP1 (Homo sapiens)', 'IC50', '1 to 10 nM'),
  ('C[C@@]12CCC(=O)C[C@H]1CC[C@H]1[C@H]2CC[C@]2(C)[C@@H]1CC[C@H]2OCCCCCCNC(=O)c1cc(Cc2n[nH]c(=O)c3ccccc23)ccc1F (stereo in doubt) [Compound 1426]', 'Human recombinant PARP1 (Homo sapiens)', 'IC50', '> 100 nM'),
  ('C[C@]12Cc3cn[nH]c3C[C@@H]1CC[C@@H]1[C@@H]2CC[C@]2(C)[C@@H](OCCCCCC(=O)N3CCN(C(=O)c4cc(Cc5n[nH]c(=O)c6ccccc56)ccc4F)CC3)CC[C@@H]12 [Compound 1394]', 'Human recombinant PARP1 (Homo sapiens)', 'IC50', '10 to 100 nM'),
  ('C[C@]12CC[C@H]3[C@@H](CCC4=CC(=O)CC[C@@]43C)[C@@H]1CC[C@@H]2C(=O)COCCCCCC(=O)N1CCN(C(=O)c2cc(Cc3n[nH]c(=O)c4ccccc34)ccc2F)CC1 [Compound 1386]', 'Human recombinant PARP1 (Homo sapiens)', 'IC50', '1 to 10 nM'),
  ('C[C@@H]1C[C@@]2(C)[C@@H](CC[C@@H]3[C@@H]2CC[C@]2(C)[C@@H](OCCCCCC(=O)N4CCN(C(=O)c5cc(Cc6n[nH]c(=O)c7ccccc67)ccc5F)CC4)CC[C@@H]32)CC1=O [Compound 1402]', 'Human recombinant PARP1 (Homo sapiens)', 'IC50', '10 to 100 nM'),
  ('CC(=O)O[C@]1(C(C)=O)CC[C@H]2[C@@H]3CCC4=CC(=O)CCC4=C3[C@@H](c3ccc(N(C)CCCCCC(=O)N4CCN(C(=O)c5cc(Cc6n[nH]c(=O)c7ccccc67)ccc5F)CC4)cc3)C[C@@]21C [Compound 1378]', 'Human recombinant PARP1 (Homo sapiens)', 'IC50', '1 to 10 nM');

###

Tested system: full-length androgen receptor (Homo sapiens, UniProt P10275)
Construct: HEK293 cells stably expressing the full-length androgen receptor; expressed in transfected cells
Test name: AR antagonism assay (HEK293, testosterone 1 nM, Steady-glo)
Assay type: cell-based
Assay conditions: Table 8; testosterone 1 nM; read-out: AR antagonism
pIC50: −log10 of the molar value.
pIC50 values for the compounds below.
Measured attribute: pIC50

INSERT INTO results (compound, observed) VALUES
  ('CC(=O)O[C@]1(C(C)=O)CC[C@H]2[C@@H]3CCC4=CC(=O)CCC4=C3[C@@H](c3ccc(N(C)CCCCCC(=O)N4CCN(C(=O)c5cc(Cc6n[nH]c(=O)c7ccccc67)ccc5F)CC4)cc3)C[C@@]21C [Compound 1378]', '6.00 to 7.00'),
  ('CC#C[C@]1(O)CC[C@H]2[C@@H]3CCC4=CC(=O)CCC4=C3[C@@H](c3ccc(N(C)CCCCCC(=O)N4CCN(C(=O)c5cc(Cc6n[nH]c(=O)c7ccccc67)ccc5F)CC4)cc3)C[C@@]21C [Compound 135]', '6.00 to 7.00');

###

Tested system: Human recombinant PARP2 (Homo sapiens, UniProt Q9UGN5)
Test name: RBC HotSpot PARP2 assay (radioisotope-based filter binding)
Type: biochemical
Measured attribute: IC50

INSERT INTO results (smiles, observed) VALUES
  ('C[C@]12C[C@H](CCCCCC(=O)N3CCN(C(=O)c4cc(Cc5n[nH]c(=O)c6ccccc56)ccc4F)CC3)C3=C4CCC(=O)C=C4CC[C@H]3[C@@H]1CCC2=O', '< 1 nM');

###

# Lookup of reported pIC50 keyed by entry
Tested system: Progesterone PR-B receptors from human breast carcinoma T47D cells (Homo sapiens)
Construct: endogenous in cells; host or cells: T47D human breast carcinoma cells (cell supernatant)
Test name: PR binding assay, [3H]Progesterone
Assay conditions: Table 8; 0.5 nM [3H]Progesterone
pIC50: −log10 of the molar value.
Measured attribute: pIC50

INSERT INTO results (smiles, tested_system, measured_attribute, observed) VALUES
  ('CC#C[C@]1(O)CC[C@H]2[C@@H]3CCC4=CC(=O)CCC4=C3[C@@H](c3ccc(N(C)CCCCCC(=O)NCCOCCOCC(=O)N4CCN(C(=O)c5cc(Cc6n[nH]c(=O)c7ccccc67)ccc5F)CC4)cc3)C[C@@]21C', 'Progesterone PR-B receptors from human breast carcinoma T47D cells (Homo sapiens)', 'pIC50', '> 8.00'),
  ('CC(=O)O[C@]1(C(C)=O)CC[C@H]2[C@@H]3CCC4=CC(=O)CCC4=C3[C@@H](c3ccc(N(C)CCCCCC(=O)N4CCN(C(=O)c5cc(Cc6n[nH]c(=O)c7ccccc67)ccc5F)CC4)cc3)C[C@@]21C', 'Progesterone PR-B receptors from human breast carcinoma T47D cells (Homo sapiens)', 'pIC50', '> 8.00'),
  ('CC(=O)O[C@]1(C(C)=O)CC[C@H]2[C@@H]3CCC4=CC(=O)CCC4=C3[C@@H](c3ccc(N(C)CCCCCC(=O)NCCOCCOCC(=O)N4CCN(C(=O)c5cc(Cc6n[nH]c(=O)c7ccccc67)ccc5F)CC4)cc3)C[C@@]21C', 'Progesterone PR-B receptors from human breast carcinoma T47D cells (Homo sapiens)', 'pIC50', '> 8.00'),
  ('C[C@]12CC[C@H]3[C@@H](CCC4=CC(=O)CC[C@@]43C)[C@@H]1CC[C@@H]2C(=O)COCCCCCC(=O)N1CCN(C(=O)c2cc(Cc3n[nH]c(=O)c4ccccc34)ccc2F)CC1', 'Progesterone PR-B receptors from human breast carcinoma T47D cells (Homo sapiens)', 'pIC50', '7.00 to 8.00'),
  ('CC#C[C@]1(O)CC[C@H]2[C@@H]3CCC4=CC(=O)CCC4=C3[C@@H](c3ccc(N(C)CCCCCC(=O)N4CCN(C(=O)c5cc(Cc6n[nH]c(=O)c7ccccc67)ccc5F)CC4)cc3)C[C@@]21C', 'Progesterone PR-B receptors from human breast carcinoma T47D cells (Homo sapiens)', 'pIC50', '> 8.00');
